experiment: Lethality by paralysis of respiratory muscles in mice; conditions: mouse, in vivo, iv
ENDPOINT_LABEL: LD50 (µmol/kg)
Field format: number, assumed µmol/kg, no unit text.

// query Give the reported LD50 for this compound. "CC[N+](CC)(CC)c1ccc(-c2ccc(-c3ccc([N+](CC)(CC)CC)cc3)cc2)cc1"
// result 0.09

// query Give the reported LD50 for this compound. CC(=O)O[C@H]1C[C@@H]2CC[C@@H]3[C@H](CC[C@@]4(C)[C@H]3C[C@H]([N+]3(C)CCCCC3)[C@@H]4OC(C)=O)[C@@]2(C)C[C@@H]1[N+]1(C)CCCCC1 [pancuronium, reference compound]
// result 0.062

====

assay: Effect on arterial pressure in cats and rabbits; format: in vivo; conditions: rabbit, in vivo, iv; 10-20 mcM/kg, artificial ventilation; read-out: tolerated dose as multiple of myoparalytic dose
ENDPOINT_LABEL: selectivity ratio
Respond numerically, and do not add a unit to the figure.

// query Give the reported selectivity ratio for this molecule. CC[N+](CC)(CC)c1ccc(-c2ccc(-c3ccc([N+](CC)(CC)CC)cc3)cc2)cc1 [Tercuronium]
// result 200

====

assay: Effect on sympathetic ganglia, third eyelid contraction in cats; assay type: in vivo; settings: cat, in vivo, iv, read-out: ganglioblocking dose as multiple of myoparalytic dose
Kindly state selectivity ratio for each of the entries shown.

// query Give the reported selectivity ratio for this compound. "CC[N+](CC)(CC)c1ccc(-c2ccc(-c3ccc([N+](CC)(CC)CC)cc3)cc2)cc1"
// result 10 to 15

// query Give the reported selectivity ratio for this compound. CC(=O)O[C@H]1C[C@@H]2CC[C@@H]3[C@H](CC[C@@]4(C)[C@H]3C[C@H]([N+]3(C)CCCCC3)[C@@H]4OC(C)=O)[C@@]2(C)C[C@@H]1[N+]1(C)CCCCC1 [pancuronium, reference compound]
// result 30

====

experiment: Lethality by paralysis of respiratory muscles in rabbits; settings: rabbit, in vivo, read-out: LD50 to HDD ratio
ENDPOINT_LABEL: selectivity ratio
Respond numerically, and do not add a unit to the figure.

// query Give the reported selectivity ratio for this molecule. CC[N+](CC)(CC)c1ccc(-c2ccc(-c3ccc([N+](CC)(CC)CC)cc3)cc2)cc1 [Tercuronium]
// result 1.4

// query Give the reported selectivity ratio for this molecule. CC(=O)O[C@H]1C[C@@H]2CC[C@@H]3[C@H](CC[C@@]4(C)[C@H]3C[C@H]([N+]3(C)CCCCC3)[C@@H]4OC(C)=O)[C@@]2(C)C[C@@H]1[N+]1(C)CCCCC1 [pancuronium, reference compound]
// result 1.4

Measured values drawn from patent US4060652A for this set.
